Provenance of the data: PubChem BioAssay (NCATS)

- Tested on: KB-3-1
- Protocol description: Cytotoxic Profiling of Annotated Libraries Using Quantitative High-Throughput Screening (AID 1296008); further: on the % scale 0 is the no-effect control and ±100 the full control effect; nearly all actives have a fitted effect of over 60% in size
- Conditions used: Five cell lines viability, CellTiter-Glo ATP luminescence, 48-72 h; hits give low values
Records with an inconclusive call do not appear.
Measure name: max response (%)

>>> observed_value("Nc1c(N=Nc2ccc(-c3ccc(N=Nc4cc(S(=O)(=O)O)c5ccccc5c4N)cc3)cc2)cc(S(=O)(=O)O)c2ccccc12")
-9
>>> observed_value("COc1cc(/C=C/C(=O)OC2CC3CCC2(C)C3(C)C)ccc1O (stereo unspecified)")
9.6
>>> observed_value("C[C@@H]1O[C@@H](O[C@H]2[C@H](O[C@H]3CO[C@@H](O[C@H]4CC[C@@]5(C)C(CC[C@]6(C)C5CC[C@]57OC[C@@]8(CC[C@](C)(CO)CC85)[C@H](O)C[C@]76C)C4(C)C)[C@H](O[C@@H]4O[C@H](CO)[C@@H](O)[C@H](O)[C@H]4O)[C@H]3O)O[C@H](CO)[C@@H](O)[C@@H]2O)[C@H](O)[C@H](O)[C@H]1O (stereo partly specified)")
5.69
>>> observed_value("O=C1CC(c2ccc([N+](=O)[O-])cc2)=NN1c1ccccc1")
3.45
>>> observed_value("CC(=O)OC1C(O)C(C)=C(CCC(C)CC(=O)O)C2(C)CCCC(C)(C)C12 (stereo unspecified)")
0.797
>>> observed_value("CC1CCC2(C(=O)OC3OC(CO)C(O)C(O)C3O)CCC3(C)C(=CCC4C5(C)CC(O)C(O)C(C)(C(=O)O)C5CCC43C)C2C1(C)O (stereo unspecified)")
1.03
>>> observed_value("C=C(C)C(=O)O[C@H]1C[C@@](C)(OC(C)=O)[C@@]2(O)CC[C@@](C)(O)[C@H](OC(C)=O)[C@@]23OC(=O)C(COC)=C13")
6.06
>>> observed_value("C=C(C)C1CC2(CO)C(=CC1=O)CCC(O)C2C (stereo unspecified)")
4.67
>>> observed_value("C[C@@H]1CCC2C(C)(C)[C@H](O)CC[C@]2(C)[C@@]12Cc1c(O)cc3c(c1O2)CN(CCO)C3=O (stereo partly specified)")
3.58
>>> observed_value("CC(C)=CCC/C(C)=C/CC/C(C)=C/CC[C@]1(C)CCc2cc(O)cc(C)c2O1")
1.67
>>> observed_value("C[C@@H]1O[C@@H](OC[C@H]2O[C@@H](OCC3CCC4CC3C4(C)C)[C@H](O)[C@@H](O)[C@@H]2O)[C@H](O)[C@H](O)[C@H]1O (stereo partly specified)")
6.44
>>> observed_value("OCCO[C@@H]1[C@@H](O)[C@H](O)[C@@H](CO)O[C@@H]1O")
22
>>> observed_value("C#Cc1cnc2[nH]c(=O)n(C(CC)CC)c2n1")
8.63
>>> observed_value("CC1(C)C(C=C(Cl)Cl)C1C(=O)OCc1cccc(Oc2ccccc2)c1 (stereo unspecified)")
-12.6
>>> observed_value("CC(C)c1cc2c(c(O)c1O[C@@H]1O[C@H](CO)[C@@H](O)[C@H](O)[C@H]1O)CC1(O)CCC(O)C(C)(C)C1CC2 (stereo partly specified)")
2.46
>>> observed_value("C=C1CC23CCC4[C@@](C)(CCC[C@@]4(C)C(=O)O)C2CCC1C3 (stereo partly specified)")
2.07
